# System: Escherichia coli
# test details: Antibacterial activity against Escherichia coli at 2 mg/ml by agar diffusion method
# Assay type: functional
# experimental parameters: read-out: DIZ
property measured: zone of inhibition at 2000 µg/mL (mm)

O=C1NN(c2nc(-c3ccccc3)c(Br)s2)C(=O)C2C3c4ccccc4C(c4ccccc43)C12 (centres undefined) :: 12
CC(=O)c1sc(Nc2ccccc2)c(C(=O)N2NC(=O)C3C4c5ccccc5C(c5ccccc54)C3C2=O)c1N (centres undefined) :: 13
N#C/C(C(=O)N1NC(=O)C2C3c4ccccc4C(c4ccccc43)C2C1=O)=C1/Nc2ccccc2S1 (centres undefined) :: 26
CC1(C)S[C@@H]2[C@H](NC(=O)[C@H](N)c3ccccc3)C(=O)N2[C@H]1C(=O)O :: 19
Cc1csc(N2NC(=O)C3C4c5ccccc5C(c5ccccc54)C3C2=O)n1 (centres undefined) :: 16
N#C/C(C(=O)N1NC(=O)C2C3c4ccccc4C(c4ccccc43)C2C1=O)=C1\SCCCN1c1ccccc1 (centres undefined) :: 25
N#C/C(C(=O)N1NC(=O)C2C3c4ccccc4C(c4ccccc43)C2C1=O)=C1\SC(=O)CN1c1ccccc1 (centres undefined) :: 18
N#C/C(C(=O)N1NC(=O)C2C3c4ccccc4C(c4ccccc43)C2C1=O)=C(\S)Nc1ccccc1 (centres undefined) :: 22
N#C/C(C(=O)N1NC(=O)C2C3c4ccccc4C(c4ccccc43)C2C1=O)=C1\SC=C(c2ccccc2)N1c1ccccc1 (centres undefined) :: 40
O=C1CSC(N2NC(=O)C3C4c5ccccc5C(c5ccccc54)C3C2=O)=N1 (centres undefined) :: 26
O=C1NN(c2nc(-c3ccccc3)cs2)C(=O)C2C3c4ccccc4C(c4ccccc43)C12 (centres undefined) :: 15
N#Cc1sc(Nc2ccccc2)c(C(=O)N2NC(=O)C3C4c5ccccc5C(c5ccccc54)C3C2=O)c1N (centres undefined) :: 20
N#C/C(C(=O)N1NC(=O)C2C3c4ccccc4C(c4ccccc43)C2C1=O)=C1\SCCN1c1ccccc1 (centres undefined) :: 15
CC1=CS/C(=C(\C#N)C(=O)N2NC(=O)C3C4c5ccccc5C(c5ccccc54)C3C2=O)N1c1ccccc1 (centres undefined) :: 30

---

# Tested on: Escherichia coli
# test details: Antibacterial activity against Escherichia coli at 2 mg/ml by agar diffusion method
# Type: functional
# experimental parameters: read-out: DIZ
property measured: zone of inhibition at 2000 µg/mL (mm)

O=C(N[C@H](CO)[C@H](O)c1ccc([N+](=O)[O-])cc1)C(Cl)Cl :: 19
COc1ccc(/C=c2\c(=O)s/c(=C(\C#N)C(=O)N3NC(=O)C4C5c6ccccc6C(c6ccccc65)C4C3=O)n2-c2ccccc2)cc1 (configuration not stated) :: 13
CN(C)/C=N/N1C(=O)C2C3c4ccccc4C(c4ccccc43)C2C1=O (configuration not stated) :: 21
N#C/C(C(=O)N1NC(=O)C2C3c4ccccc4C(c4ccccc43)C2C1=O)=C1\SCC(=O)N1c1ccccc1 (configuration not stated) :: 26
Nc1c(C(=O)c2ccccc2)sc(Nc2ccccc2)c1C(=O)N1NC(=O)C2C3c4ccccc4C(c4ccccc43)C2C1=O (configuration not stated) :: 20
N#C/C(C(=O)N1NC(=O)C2C3c4ccccc4C(c4ccccc43)C2C1=O)=c1\sc(=O)c(=C2C(=O)c3ccccc3C2=O)n1-c1ccccc1 (configuration not stated) :: 25
N#C/C(C(=O)N1NC(=O)C2C3c4ccccc4C(c4ccccc43)C2C1=O)=c1\sc(=O)/c(=C2\C(=O)Nc3ccccc32)n1-c1ccccc1 (configuration not stated) :: 15
